Target: T1, ZFP SBS#1278 (synthetic)
T1 chain: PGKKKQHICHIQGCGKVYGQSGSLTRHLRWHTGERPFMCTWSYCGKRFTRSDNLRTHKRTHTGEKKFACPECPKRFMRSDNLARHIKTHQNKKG
Test: EMSA
Details: tags: MBP fusion
endpoint_name: Kd (nM)
The answer is to be given in nM; state only the numeric part.

// sample GAGTAGGCA (dsDNA) DNA 1: GAGTAGGCA DNA 2: TGCCTACTC , its Kd was 0.019

Data provenance: patent US20030068675
